The measured values listed here are drawn from patent US20230265116A1.

Target: EGFR L858R/T790M/C797S (BaF3-LTC cells) (Homo sapiens, UniProt P00533, C797S/L858R/T790M)
Construct: expressed in transfected cells; host or cells: BaF3
Sequence (P00533 25-1210 T790M/C797S/L858R): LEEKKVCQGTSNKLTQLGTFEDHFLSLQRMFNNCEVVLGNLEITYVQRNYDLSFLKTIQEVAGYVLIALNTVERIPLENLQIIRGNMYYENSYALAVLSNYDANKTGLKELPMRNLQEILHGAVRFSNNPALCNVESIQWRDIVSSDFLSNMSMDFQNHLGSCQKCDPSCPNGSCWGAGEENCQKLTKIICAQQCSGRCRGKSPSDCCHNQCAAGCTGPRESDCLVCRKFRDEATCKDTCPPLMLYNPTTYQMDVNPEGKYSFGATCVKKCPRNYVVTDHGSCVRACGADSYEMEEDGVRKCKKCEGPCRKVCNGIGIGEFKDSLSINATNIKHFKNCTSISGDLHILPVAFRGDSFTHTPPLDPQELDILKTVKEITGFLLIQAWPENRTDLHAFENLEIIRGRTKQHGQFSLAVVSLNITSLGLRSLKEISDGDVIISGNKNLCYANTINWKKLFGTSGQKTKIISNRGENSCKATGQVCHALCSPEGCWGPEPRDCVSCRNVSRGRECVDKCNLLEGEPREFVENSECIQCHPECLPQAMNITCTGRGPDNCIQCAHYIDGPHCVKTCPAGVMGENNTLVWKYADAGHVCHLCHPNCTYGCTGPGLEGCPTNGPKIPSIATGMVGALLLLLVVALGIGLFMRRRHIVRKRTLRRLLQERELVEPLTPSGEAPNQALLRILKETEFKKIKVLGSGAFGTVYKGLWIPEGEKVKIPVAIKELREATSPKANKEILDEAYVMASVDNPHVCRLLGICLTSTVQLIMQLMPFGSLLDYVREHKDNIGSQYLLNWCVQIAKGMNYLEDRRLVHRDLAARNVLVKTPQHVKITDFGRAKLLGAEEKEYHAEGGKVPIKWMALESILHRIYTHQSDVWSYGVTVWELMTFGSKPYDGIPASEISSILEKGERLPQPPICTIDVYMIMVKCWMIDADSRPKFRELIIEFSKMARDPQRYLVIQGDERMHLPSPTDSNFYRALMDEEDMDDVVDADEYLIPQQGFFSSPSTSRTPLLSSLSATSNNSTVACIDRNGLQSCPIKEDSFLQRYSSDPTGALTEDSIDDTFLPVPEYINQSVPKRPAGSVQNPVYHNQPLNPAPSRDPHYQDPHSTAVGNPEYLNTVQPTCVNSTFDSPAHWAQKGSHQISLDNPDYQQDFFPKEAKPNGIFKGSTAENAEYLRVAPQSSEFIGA
Assay: EGFR degradation HTRF assay, BaF3-LTC cells
Assay type: cell-based
Conditions: BaF3-LTC cells; EGFR degradation, IC50 (DC50) from curve fit; read-out: DC50(nM) BaF3-LTC
Procedure: BaF3 WT(wild type), BaF3-LTC(L858R/T790M/C797S) and BaF3-DTC(Del19/T790M/C797S) cells are treated with compounds diluted in 0.2% DMSO cell culture medium and incubate for 16h, 37° C., 5% CO2, H1975-#36, H1975-#28, H1975-#23 and HCC827 cells are treated with compounds diluted in 0.2% DMSO cell culture medium on day 2, incubate for 16h, 37° C., 5% CO2.the final concentriation of compounds in all assay is start with 10 uM, 5-fold dilution, total 8 doses were included. […]
QUANTITY_MEASURED: DC50 (nM)
State the answer as a number, implicitly in nM.

{"COMPOUND": "CCOc1cc(N2CCC(N3CCN(CCc4ccc5c(c4)oc(=O)n5C4CCC(=O)NC4=O)CC3)CC2)c(CC)cc1Nc1ncc(Br)c(Nc2cc(F)c3nc(CC)ccc3c2P(C)(C)=O)n1 (stereo not drawn) [Example 500]", "TESTED_SYSTEM": "EGFR L858R/T790M/C797S (BaF3-LTC cells) (Homo sapiens, UniProt P00533, C797S/L858R/T790M)", "OBSERVED": 2.42}
{"COMPOUND": "CCc1cc(Nc2ncc(Br)c(Nc3ccc4nc(COC)ccc4c3P(C)(C)=O)n2)c(OC)cc1N1CCC(N2CCN(CCc3cc(F)c(C4CCC(=O)NC4=O)c(F)c3)CC2)CC1 (stereo not drawn) [Example 690]", "TESTED_SYSTEM": "EGFR L858R/T790M/C797S (BaF3-LTC cells) (Homo sapiens, UniProt P00533, C797S/L858R/T790M)", "OBSERVED": 6.66}

Now for another entry.
QUERY: Fill in: DC50 of CCc1cc(Nc2ncc(Br)c(Nc3ccc4nc(NC5CC5)ccc4c3P(C)(C)=O)n2)c(OC)cc1N1CCC(N2CCN(CCc3ccc4c(c3)oc(=O)n4C3CCC(=O)NC3=O)CC2)CC1 (stereo not drawn) [Example 633] is ___
RESULT: 5.12

* * *

Molecular target: EGFR L858R/T790M/C797S (BaF3-LTC cells) (Homo sapiens, UniProt P00533, C797S/L858R/T790M)
Construct: expressed in transfected cells; host or cells: BaF3
Experiment: EGFR degradation HTRF assay, BaF3-LTC cells
Assay type: cell-based
Conditions: BaF3-LTC, 16h treatment, maximum percentage of degradation; read-out: LTC Dmax (%)
Procedure: BaF3 WT(wild type), BaF3-LTC(L858R/T790M/C797S) and BaF3-DTC(Del19/T790M/C797S) cells are treated with compounds diluted in 0.2% DMSO cell culture medium and incubate for 16h, 37° C., 5% CO2, H1975-#36, H1975-#28, H1975-#23 and HCC827 cells are treated with compounds diluted in 0.2% DMSO cell culture medium on day 2, incubate for 16h, 37° C., 5% CO2.the final concentriation of compounds in all assay is start with 10 uM, 5-fold dilution, total 8 doses were included. […]
QUANTITY_MEASURED: Dmax
Form field: result (number plus unit)

Please review the entries below; each comes with its answer.
{"MOLECULE": "CCc1cc(Nc2ncc(Br)c(Nc3ccc4nccnc4c3P(C)(C)=O)n2)c(OC)cc1N1CCC(N2CCN(C[C@@H]3CCN(c4ccc(C5CCC(=O)NC5=O)cc4)C3)CC2)CC1 (some centres unmarked)", "TESTED_SYSTEM": "EGFR L858R/T790M/C797S (BaF3-LTC cells) (Homo sapiens, UniProt P00533, C797S/L858R/T790M)", "OBSERVED": "84.2%"}
{"MOLECULE": "COc1cc(N2CCC(N3CC4CC(C3)N4CCC3CCN(c4cc(F)c(C5CCC(=O)NC5=O)c(F)c4)CC3)CC2)c(C)cc1Nc1ncc(Br)c(Nc2ccc3nccnc3c2P(C)(C)=O)n1 (centres unmarked)", "TESTED_SYSTEM": "EGFR L858R/T790M/C797S (BaF3-LTC cells) (Homo sapiens, UniProt P00533, C797S/L858R/T790M)", "OBSERVED": "73.6%"}
{"MOLECULE": "CCc1cc(Nc2ncc(Br)c(Nc3ccc4nccnc4c3P(C)(C)=O)n2)c(OC)cc1N1CCC(N2CCN(CC3CN(c4ccc(C5CCC(=O)NC5=O)c(C#N)c4)C3)CC2)CC1 (centres unmarked)", "TESTED_SYSTEM": "EGFR L858R/T790M/C797S (BaF3-LTC cells) (Homo sapiens, UniProt P00533, C797S/L858R/T790M)", "OBSERVED": "87%"}

QUERY: Look up Dmax: CCc1cc(Nc2ncc(Br)c(Nc3ccc4nc(C(C)C)ccc4c3P(C)(C)=O)n2)c(OC)cc1N1CCC(N2CCN(CCc3cc(F)c(C4CCC(=O)NC4=O)c(F)c3)CC2)CC1 (centres unmarked)
RESULT: 79%

QUERY: Using the record for CCc1cc(Nc2ncc(Br)c(Nc3ccc4nccnc4c3P(C)(C)=O)n2)c(OC)cc1N1CCC(N2CCN(CCc3ccc(C4CCC(=O)NC4=O)cc3F)CC2)CC1 (centres unmarked) , report its Dmax.
RESULT: 82.2%
